Biological target: Dual specificity protein kinase CLK1 (Homo sapiens, UniProt P49759); note: in the data inactive means no Kd found up to 30 µM
Sequence (P49759 whole entry): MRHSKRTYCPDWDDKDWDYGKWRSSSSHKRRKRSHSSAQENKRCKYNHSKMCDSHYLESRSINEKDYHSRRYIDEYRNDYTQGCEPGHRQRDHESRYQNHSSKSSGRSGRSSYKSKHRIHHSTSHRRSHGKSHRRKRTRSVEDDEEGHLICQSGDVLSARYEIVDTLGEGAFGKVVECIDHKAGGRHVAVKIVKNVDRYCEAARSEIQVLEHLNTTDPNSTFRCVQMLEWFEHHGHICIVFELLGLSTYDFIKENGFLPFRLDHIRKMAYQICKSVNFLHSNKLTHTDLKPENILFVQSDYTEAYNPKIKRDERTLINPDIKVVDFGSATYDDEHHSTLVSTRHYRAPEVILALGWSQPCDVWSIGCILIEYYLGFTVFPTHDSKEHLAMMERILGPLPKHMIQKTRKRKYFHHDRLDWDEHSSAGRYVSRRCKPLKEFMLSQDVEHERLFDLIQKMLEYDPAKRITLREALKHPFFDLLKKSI
The source made the active and inactive calls.
Tick one outcome: TRUE = active, FALSE = inactive

Q: For `O=c1sn(-c2cccc3ccccc23)c(=O)n1Cc1ccccc1` , what call appears in the results of this test?
Result: FALSE

Q: For `COc1cc2nccc(Oc3ccc(NC(=O)NC4CC4)c(Cl)c3)c2cc1C(N)=O` , what call appears in the results of this test?
Result: FALSE

Q: For `C=CC(=O)N1CCC(Oc2cc3c(Nc4ccc(Cl)c(Cl)c4F)ncnc3cc2OC)CC1` , what call appears in the results of this test?
Result: FALSE

Q: For `Cc1cc(-c2cc(O)ccc2Cl)cc2nnc(Nc3ccc(OCCN4CCCC4)cc3)nc12` , what call appears in the results of this test?
Result: FALSE

Q: For `COC(=O)N[C@@H](C)CNc1nccc(-c2cn(C(C)C)nc2-c2cc(Cl)cc(NS(C)(=O)=O)c2F)n1` , what call appears in the results of this test?
Result: FALSE

Q: For `C[C@@H](c1ccc2nccn2c1)n1nnc2ncc(-c3cnn(C)c3)nc21` , what call appears in the results of this test?
Result: FALSE

Q: For COC(=O)[C@@]1(O)C[C@H]2O[C@]1(C)n1c3ccccc3c3c4c(c5c6ccccc6n2c5c31)C(=O)NC4 [K-252A] , what call appears in the results of this test?
Result: TRUE

Q: For `COc1cc2nccc(Oc3ccc(NC(=O)Nc4cc(C)on4)c(Cl)c3)c2cc1OC` , what call appears in the results of this test?
Result: FALSE

Q: For O=C(Nc1ccc(-c2ccnc(Nc3ccc(N4CCOCC4)cc3)n2)cc1)C1CCCN1 (stereo not given) , what call appears in the results of this test?
Result: FALSE

Q: For `CC(C)Nc1cc(-c2c[nH]c(C(=O)N[C@H](CO)c3cccc(Cl)c3)c2)c(Cl)cn1` , what call appears in the results of this test?
Result: FALSE

Q: For `CCN1CCN(Cc2ccc(-c3cc4c(N[C@H](C)c5ccccc5)ncnc4[nH]3)cc2)CC1` , what call appears in the results of this test?
Result: FALSE

Q: For `Cc1c(F)cc(C(=O)NC2CC2)cc1-c1ccc(C(=O)NCC(C)(C)C)cn1` , what call appears in the results of this test?
Result: FALSE

Q: For `Cn1cc(-c2ccc3nnc(C(F)(F)c4ccc5ncccc5c4)n3n2)cn1` , what call appears in the results of this test?
Result: FALSE

Q: For `COc1cc(CCc2cc(NC(=O)c3ccc(N4C[C@@H](C)N[C@@H](C)C4)cc3)n[nH]2)cc(OC)c1` , what call appears in the results of this test?
Result: FALSE

----------
Molecular target: Serine/threonine-protein kinase Nek9 (Homo sapiens); note: in the data inactive means no Kd found up to 30 µM
Sequence (Q8TD19 whole entry): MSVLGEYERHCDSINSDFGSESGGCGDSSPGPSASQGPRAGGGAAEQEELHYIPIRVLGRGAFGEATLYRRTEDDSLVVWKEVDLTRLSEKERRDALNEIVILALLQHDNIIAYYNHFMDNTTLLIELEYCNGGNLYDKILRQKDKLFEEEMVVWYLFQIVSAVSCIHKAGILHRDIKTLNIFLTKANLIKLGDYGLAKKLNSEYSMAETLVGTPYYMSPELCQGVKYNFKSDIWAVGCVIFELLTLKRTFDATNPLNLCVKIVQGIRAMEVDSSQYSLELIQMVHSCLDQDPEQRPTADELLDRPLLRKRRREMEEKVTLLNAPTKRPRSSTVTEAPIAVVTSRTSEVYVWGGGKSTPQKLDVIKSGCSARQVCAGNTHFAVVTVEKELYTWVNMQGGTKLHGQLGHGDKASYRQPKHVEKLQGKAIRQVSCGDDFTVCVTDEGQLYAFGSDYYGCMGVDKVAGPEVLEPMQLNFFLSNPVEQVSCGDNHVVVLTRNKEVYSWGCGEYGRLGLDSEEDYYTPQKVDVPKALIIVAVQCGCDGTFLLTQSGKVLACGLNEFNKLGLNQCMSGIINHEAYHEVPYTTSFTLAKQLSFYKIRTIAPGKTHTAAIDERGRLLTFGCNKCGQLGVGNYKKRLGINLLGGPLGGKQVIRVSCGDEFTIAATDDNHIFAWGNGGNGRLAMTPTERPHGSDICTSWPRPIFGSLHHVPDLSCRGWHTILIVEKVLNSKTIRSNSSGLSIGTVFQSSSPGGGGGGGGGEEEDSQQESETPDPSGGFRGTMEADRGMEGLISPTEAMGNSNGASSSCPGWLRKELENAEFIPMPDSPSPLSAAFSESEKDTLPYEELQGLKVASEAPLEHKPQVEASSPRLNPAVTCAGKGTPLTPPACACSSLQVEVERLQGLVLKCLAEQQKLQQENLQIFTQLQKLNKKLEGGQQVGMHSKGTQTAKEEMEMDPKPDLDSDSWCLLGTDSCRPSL
Activity calls are given as the source filed them.
Tick one outcome: TRUE (active), FALSE (inactive)

Q: For `Cc1ccc(S(=O)(=O)Nc2nc3ccccc3nc2Nc2ccc3nsnc3c2)cc1` , what call appears in the results of this test?
Result: FALSE

Q: For `COc1cc2nccc(Oc3ccc(NC(=O)NC4CC4)c(Cl)c3)c2cc1C(N)=O` , what call appears in the results of this test?
Result: FALSE

Q: For `O=C(c1ccc(F)c(F)c1Nc1ccc(I)cc1F)N1CC(O)([C@@H]2CCCCN2)C1` , what call appears in the results of this test?
Result: FALSE

Q: For `O=C(O)[C@]1(Cc2cccc(Nc3nccs3)n2)CC[C@@H](Oc2cccc(Cl)c2F)CC1` , what call appears in the results of this test?
Result: FALSE

Q: For O=C(Nc1ccc(-c2ccnc(Nc3ccc(N4CCOCC4)cc3)n2)cc1)C1CCCN1 (stereo unspecified) , what call appears in the results of this test?
Result: TRUE

Q: For `C[C@@H](Nc1cc(F)cc(F)c1)c1cc(C(=O)N(C)C)cc2c(=O)cc(N3CCOCC3)oc12` , what call appears in the results of this test?
Result: FALSE
